Source of measurements: BindingDB's records for PubMed 11504829

# tgt: Muscarinic acetylcholine receptor M1 (Homo sapiens, UniProt P11229)
# Sequence (P11229 whole entry): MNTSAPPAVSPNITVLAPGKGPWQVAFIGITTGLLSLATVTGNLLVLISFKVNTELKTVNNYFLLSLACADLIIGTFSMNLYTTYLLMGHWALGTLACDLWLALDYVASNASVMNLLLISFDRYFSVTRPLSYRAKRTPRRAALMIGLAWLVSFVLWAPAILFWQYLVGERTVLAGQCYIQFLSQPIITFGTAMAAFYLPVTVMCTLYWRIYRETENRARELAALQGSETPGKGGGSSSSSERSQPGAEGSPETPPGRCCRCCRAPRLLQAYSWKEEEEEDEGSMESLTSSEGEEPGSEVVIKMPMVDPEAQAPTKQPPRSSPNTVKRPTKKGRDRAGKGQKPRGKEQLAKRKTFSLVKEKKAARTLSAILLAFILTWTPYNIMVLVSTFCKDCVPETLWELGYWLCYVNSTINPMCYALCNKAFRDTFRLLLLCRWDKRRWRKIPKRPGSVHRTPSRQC
Give measured Ki for each item. Keep answers brief.
Hi! Could you send only the number? It should be in nM, unit omitted.

Report value: Ki, system: Muscarinic acetylcholine receptor M1 (Homo sapiens, UniProt P11229), compound: C(#Cc1cccc(C#CCOc2nsnc2C2CN3CCC2CC3)c1)COc1nsnc1C1CN2CCC1CC2 (stereo not drawn) 2.4

Report value: Ki, system: Muscarinic acetylcholine receptor M1 (Homo sapiens, UniProt P11229), compound: C(#Cc1ccccc1)COc1nsnc1C1CN2CCC1CC2 (stereo not drawn) 41.7

Report value: Ki, system: Muscarinic acetylcholine receptor M1 (Homo sapiens, UniProt P11229), compound: C(#Cc1ccc(C#CCOc2nsnc2C2CN3CCC2CC3)cc1)COc1nsnc1C1CN2CCC1CC2 (stereo not drawn) 0.129
